- STUDY TARGET: Cdk2/cyclin A complex (human, UniProt P24941 1-298; P20248 173-432)
- PROTOCOL DETAILS: fluorescence polarisation; fluorescence anisotropy; Cdk2/cyclin A binding to p27-D2-FL (20 nM); 25 °C; 20 mM Na phosphate, pH 7, 200 mM NaCl, 3.5 mM TCEP; non-linear regression on the average of three experiments
- STATED CONDITIONS: both partners purified
Where no end group is shown, it is not given here.
ENDPOINT LABEL: pKd
Value format note: pKd is -log10 of concentration (mol/L); just state the number.

Returns the measured pKd for the input binder. Input: RKWNFDFQNHKPLEGKYEWQEVEKGSLPEFYYRPPC(Alexa Fluor 488 C5‑maleimide)PPKGASKVPAQE (domain or fragment, p27Kip1 (p27; CDKN1B), human, D2 sub-domain construct, residues 58-105; Cloned in pET28a; also called single-cysteine mutant of p27-D2; source: conjugated with Alexa Fluor488-C5-Maleimide and purified again by HPLC; not shown: 6xHis, N-terminal, cleaved) [p27-D2-FL (p27-D2-C99S-R93C labeled with Alexa Fluor 488)]
7.14
